- Test system: CCL2 mRNA level in HEK-293T cells
- condition-notes: human
measurement-name: CCL2 Average
Reply: number alone, nothing else.

molecule: CCCCCCCCCCCOC(=O)CCCCCN(CCCCCCCC(=O)OC(CCCCCCCC)CCCCCCCC)CC(O)CCCCNC(=O)c1ccn(C)c1 (stereo not drawn) [Compound 19]
CCL2 Average: 0.91
--
molecule: CCCCCCCCCCCOC(=O)CCCCCN(CCCCCCCC(=O)OC(CCCCCCCC)CCCCCCCC)CC(O)CCCCNC(=O)c1[nH]ccc1O (stereo not drawn) [Compound 21]
CCL2 Average: 0.63

Next up:
Challenge: Request the reported CCL2 Average associated with CCCCCCCCCCCOC(=O)CCCCCN(CCCCCCCC(=O)OC(CCCCCCCC)CCCCCCCC)CC(O)CCCCNC(=O)c1c(O)ccn1C (stereo not drawn) [Compound 24]
Response given: 0.96
